The values you see were collected from ChEMBL document CHEMBL5126595.

Tested on: NCI-H2228
Test: Antiproliferative activity against EML4-ALK positive human NCI-H2228 cells assessed as inhibition of cell growth incubated for 72 hrs by MTT assay
Format: functional, cell-based
Details: NCI-H2228, 72 h
readout.name: log10 of IC50 (log10 of the value in nM)

{"molecule.smiles": "CCc1[nH]c2cc(Nc3ncc(Cl)c(Nc4ccccc4C(=O)NC)n3)ccc2c1C(=O)OC", "log10 of IC50": 2.90}
{"molecule.smiles": "Cc1[nH]c2cc(Nc3ncc(Cl)c(Nc4ccccc4NS(C)(=O)=O)n3)ccc2c1C(=O)N1CCC(O)CC1", "log10 of IC50": 2.41}
{"molecule.smiles": "CCOC(=O)c1c(C)[nH]c2cc(Nc3ncc(Cl)c(Nc4ccccc4C(=O)NC)n3)ccc12", "log10 of IC50": 2.23}
{"molecule.smiles": "Cc1[nH]c2cc(Nc3ncc(Cl)c(Nc4ccccc4NS(C)(=O)=O)n3)ccc2c1C(=O)N1CC(O)C1", "log10 of IC50": 2.69}
{"molecule.smiles": "CNC(=O)c1ccccc1Nc1nc(Nc2ccc3c(C(=O)N4CCOCC4)c(C)[nH]c3c2)ncc1Cl", "log10 of IC50": 1.84}
{"molecule.smiles": "CNC(=O)c1ccccc1Nc1nc(Nc2ccc3c(C(=O)N4CCN(CCO)CC4)c(C)[nH]c3c2)ncc1Cl", "log10 of IC50": 2.97}
{"molecule.smiles": "Cc1[nH]c2cc(Nc3ncc(Cl)c(Nc4ccccc4NS(C)(=O)=O)n3)ccc2c1C(=O)N1CCN(CCO)CC1", "log10 of IC50": 2.52}
{"molecule.smiles": "CNC(=O)c1ccccc1Nc1nc(Nc2ccc3c(C(=O)N4CCCC4)c(C)[nH]c3c2)ncc1Cl", "log10 of IC50": 1.85}
{"molecule.smiles": "Cc1[nH]c2cc(Nc3ncc(Cl)c(Nc4ccccc4NS(C)(=O)=O)n3)ccc2c1C(=O)N(C)C", "log10 of IC50": 1.99}
{"molecule.smiles": "Cc1[nH]c2cc(Nc3ncc(Cl)c(Nc4ccccc4NS(C)(=O)=O)n3)ccc2c1C(=O)O", "log10 of IC50": 3.41}
{"molecule.smiles": "CCN1CCN(C(=O)c2c(C)[nH]c3cc(Nc4ncc(Cl)c(Nc5ccccc5C(=O)NC)n4)ccc23)CC1", "log10 of IC50": 2.76}
{"molecule.smiles": "CNC(=O)c1ccccc1Nc1nc(Nc2ccc3c(C(=O)N4CCC(C)CC4)c(C)[nH]c3c2)ncc1Cl", "log10 of IC50": 2.11}
{"molecule.smiles": "CNC(=O)c1ccccc1Nc1nc(Nc2ccc3c(C(=O)N(C)C)c(C)[nH]c3c2)ncc1Cl", "log10 of IC50": 1.57}
{"molecule.smiles": "CNC(=O)c1ccccc1Nc1nc(Nc2ccc3c(C(=O)N4CC(O)C4)c(C)[nH]c3c2)ncc1Cl", "log10 of IC50": 3.34}
